Just for reference, patent US20210253718A1 is where these values come from.

Biological target: T1, FZD6 CRD (Homo sapiens, UniProt O60353)
T1 construct: S20-P146; GPI anchor signal (C); expressed in transfected cells; host or cells: CHO cells, lentiviral pLenti-puro
T1 sequence (O60353 20-146): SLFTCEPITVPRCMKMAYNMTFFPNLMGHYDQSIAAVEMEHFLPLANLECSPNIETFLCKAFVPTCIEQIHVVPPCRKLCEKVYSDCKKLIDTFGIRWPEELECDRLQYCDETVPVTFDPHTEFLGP
Experiment: Immunofluorescence of anti-FZD5 Fab binding to CHO cells overexpressing Frizzled CRD
Parameters: key: −: no binding; +: very weak binder; ++: weak binder; +++: good binder; ++++: very good binder
endpoint-label: Immunofluorescence binding, Frizzled CRD overexpressed on CHO cells: FZD6

molecule | result
Fab-2898: anti-FZD5 Fab with antibody variable region Fv-2898; CDR SEQ ID NOs: 35, 36, 37, 76, 113, 152 (antibody, V domains shown) VH: EVQLVESGGGLVQPGGSLRLSCAASGFNIYSYSMHWVRQAPGKGLEWVASIYSSSGSTSYADSVKGRFTISADTSKNTAYLQMNSLRAEDTAVYYCARAVWGLDYWGQGTLVTVSS VL: DIQMTQSPSSLSASVGDRVTITCRASQSVSSAVAWYQQKPGKAPKLLIYSASSLYSGVPSRFSGSRSGTDFTLTISSLQPEDFATYYCQQWWGYYSLITFGQGTKVEIK | −
Fab-2924: anti-FZD5 Fab with antibody variable region Fv-2924; CDR SEQ ID NOs: 35, 36, 63, 101, 139, 153 (antibody, V domains shown) VH: EVQLVESGGGLVQPGGSLRLSCAASGFNISYSYIHWVRQAPGKGLEWVASIYSYYSSTSYADSVKGRFTISADTSKNTAYLQMNSLRAEDTAVYYCARGALDYWGQGTLVTVSS VL: DIQMTQSPSSLSASVGDRVTITCRASQSVSSAVAWYQQKPGKAPKLLIYSASSLYSGVPSRFSGSRSGTDFTLTISSLQPEDFATYYCQQWYSGHSLITFGQGTKVEIK | −
